Test system: HCV subgenomic replication
experimental details: Cell based HCV replication assay (subgenomic replicon in Huh-7 cells, NS3 Cell-ELISA)
condition summary: Table 2, various macrocycles; activity ranges; read-out: IC50* (nM), Inhibition of HCV subgenomic replication
Give IC50 for every item shown.

The examples below pair each entry with its known result.
{"compound": "CCN1CCN(CCO)[C@H]2COc3cc(C)ccc3-c3c(C4CCCCC4)c4ccc(cc4n3C2)C(=O)NS(=O)(=O)N(C)CC1 [Example 214]", "tested system": "HCV subgenomic replication", "IC50": "< 25 nM"}
{"compound": "CCN1CCN(CCN(C)C)C2COc3c(C)cccc3-c3c(C4CCCCC4)c4ccc(cc4n3C2)C(=O)NS(=O)(=O)N(C)CC1 (centres unmarked) [Example 219]", "tested system": "HCV subgenomic replication", "IC50": "< 25 nM"}
{"compound": "CCN1CCNC2COc3cc(F)ccc3-c3c(C4CCCCC4)c4ccc(cc4n3C2)C(=O)NS(=O)(=O)N(C)CC1 (centres unmarked) [Example 204]", "tested system": "HCV subgenomic replication", "IC50": "25 to 150 nM"}
{"compound": "CCN1CCN(C)C2COc3cc(OC)ccc3-c3c(C4CCCCC4)c4ccc(cc4n3C2)C(=O)NS(=O)(=O)N(C)CC1 (centres unmarked) [Example 210]", "tested system": "HCV subgenomic replication", "IC50": "< 25 nM"}
{"compound": "CCN1CCN(CCNC)C2COc3cc(F)ccc3-c3c(C4CCCCC4)c4ccc(cc4n3C2)C(=O)NS(=O)(=O)N(C)CC1 (centres unmarked) [Example 208]", "tested system": "HCV subgenomic replication", "IC50": "25 to 150 nM"}

Report IC50 for each item below.
1. CCN1CCN(C)[C@H]2COc3cc(OCc4ccccn4)ccc3-c3c(C4CCCCC4)c4ccc(cc4n3C2)C(=O)NS(=O)(=O)N(C)CC1 [Example 211]
2. CN1CCN(Cc2ccccc2)CCN(C)S(=O)(=O)NC(=O)c2ccc3c(C4CCCCC4)c4n(c3c2)CC1Cc1ccccc1-4 (centres unmarked) [Example 201]
3. CCN1CCN(C)C2COc3ccc(F)cc3-c3c(C4CCCCC4)c4ccc(cc4n3C2)C(=O)NS(=O)(=O)N(C)CC1 (centres unmarked) [Example 205]
4. CCN1CCN(Cc2cccnc2)C2COc3ccc(F)cc3-c3c(C4CCCCC4)c4ccc(cc4n3C2)C(=O)NS(=O)(=O)N(C)CC1 (centres unmarked) [Example 206]
5. CN1CCN(C)C2COc3ccc(F)cc3-c3c(C4CCCCC4)c4ccc(cc4n3C2)C(=O)NS(=O)(=O)N(C)CC1 (centres unmarked) [Example 202]

Completion:
["< 25 nM", "> 500 nM", "< 25 nM", "< 25 nM", "< 25 nM"]

Report IC50 for each item below.
1. CCN1CCN(C)[C@H]2COc3cc(C)ccc3-c3c(C4CCCCC4)c4ccc(cc4n3C2)C(=O)NS(=O)(=O)N(C)CC1 [Example 215]
2. CC(C)N1CCN(C)C2COc3ccc(F)cc3-c3c(C4CCCCC4)c4ccc(cc4n3C2)C(=O)NS(=O)(=O)N(C)CC1 (centres unmarked) [Example 209]
3. Cc1ccc2c(c1)OCC1Cn3c-2c(C2CCCCC2)c2ccc(cc23)C(=O)NS(=O)(=O)N(C)CCN(C(C)C)CCN1C (centres unmarked) [Example 218]
4. CCN1CCN(C)C2COc3cc(F)ccc3-c3c(C4CCCCC4)c4ccc(cc4n3C2)C(=O)NS(=O)(=O)N(C)CC1 (centres unmarked) [Example 203]

Completion:
1: < 25 nM; 2: < 25 nM; 3: < 25 nM; 4: < 25 nM

Provenance of the data: patent US7989438B2
